Dear all, I have gathered published IC50 values for UniProt:Q92769; the list follows.
Sequence (Q92769 whole entry): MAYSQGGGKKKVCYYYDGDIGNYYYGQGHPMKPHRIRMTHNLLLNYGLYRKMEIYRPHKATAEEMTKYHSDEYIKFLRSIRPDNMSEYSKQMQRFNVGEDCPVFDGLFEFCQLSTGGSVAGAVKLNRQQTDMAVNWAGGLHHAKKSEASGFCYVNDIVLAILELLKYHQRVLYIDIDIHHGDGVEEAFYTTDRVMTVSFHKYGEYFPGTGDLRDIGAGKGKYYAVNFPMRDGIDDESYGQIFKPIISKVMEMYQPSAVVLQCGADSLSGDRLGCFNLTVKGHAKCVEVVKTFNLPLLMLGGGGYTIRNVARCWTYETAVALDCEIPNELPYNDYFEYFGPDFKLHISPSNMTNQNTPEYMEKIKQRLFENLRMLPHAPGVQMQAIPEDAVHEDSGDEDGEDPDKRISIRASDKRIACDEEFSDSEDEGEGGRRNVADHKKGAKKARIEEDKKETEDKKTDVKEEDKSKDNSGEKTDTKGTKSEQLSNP
Field format: number, assumed nM, no unit text.

Here is how some compounds turned out for IC50.
So what's the measured IC50 for this one? C#CCN(C)CCCOc1cc(NC(=O)CCCCCCC(=O)NO)ccc1Cl
150

Given the compound O=C(CCCCCCS)NCc1cccc(OCc2ccccc2)c1 , what is its reported IC50?
14000

// lookup IC50 for O=C(CCCCCCC(=O)Nc1ccc(-c2cn(CC(O)c3cccc(Br)c3)nn2)cc1)NO (configuration not stated)
143

Name the reported IC50 value associated with the compound Nc1ccccc1NC(=O)CCCCC(=O)Nc1ccc2c(c1)/C(=C/c1ccc[nH]1)C(=O)N2
3290

Entry Nc1nc2cc(-c3nn(CCCCCCCC(=O)NO)c4ncnc(N)c34)ccc2o1 has what IC50?
3.4

Consider the compound O=C(CCCCCCC(=O)NC[C@H]1O[C@@H]2O[C@H]3[C@H](O)[C@@H](O)[C@@H](O[C@H]4[C@H](O)[C@@H](O)[C@@H](O[C@H]5[C@H](O)[C@@H](O)[C@@H](O[C@H]6[C@H](O)[C@@H](O)[C@@H](O[C@H]7[C@H](O)[C@@H](O)[C@@H](O[C@H]8[C@H](O)[C@@H](O)[C@@H](O[C@H]1[C@H](O)[C@H]2O)O[C@@H]8CO)O[C@@H]7CO)O[C@@H]6CO)O[C@@H]5CO)O[C@@H]4CO)O[C@@H]3CO)NO and give its measured IC50.
1200

Reported IC50 for CN(C)c1ccc(NC(=O)NCCCCCCC(=O)NO)cc1 : what is it?
647

Would you kindly share the measured IC50 for COc1cc(C(=O)c2ccc3c(ccn3S(=O)(=O)c3ccc(/C=C/C(=O)NO)cc3)c2)cc(OC)c1OC ?
11600

---
Dear colleague, I am looking for the recorded IC50 of the following compound: Nc1cc(F)ccc1NC(=O)c1ccc(NC(=O)Cc2ccccc2)cc1
3200

What value of IC50 has been reported for the following compound? CC1(C)CC(=O)Nc2ccc(C(=O)NCc3ccc(/C=C/C(=O)NO)cc3)cc21
22

So what's the measured IC50 for this one? O=C(CCCCCCNC(=O)c1ccc(NC(=O)CNC(=O)CC2c3ccccc3-c3ccccc32)cc1)NO
157
